Test: chemical genetic growth profiling, strain panel (AID 1159580);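 note: tested at 20 µM; growth read once vehicle control cultures reached saturation at 30 °C; lower values mean less growth of the strain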
Conditions: S. cerevisiae deletion strains, growth OD, locus YLR418C, strain cdc73
The campaign covered roughly 5,500 compounds. About 2,000 (36%) were called active. About 18% were inconclusive and are not listed. Cut-off read from the data, not from the text of the source: active = normalized growth mostly below about 0.91 (no sharp cut-off); inconclusive = no clear call, values can overlap the other calls; inactive = mostly above about 0.92. The list shows a part of the results.
Field 'call' accepts active, inactive

molecule	label-class
NCCc1cccc(O)c1	inactive

I'd appreciate the recorded outcome for `O=C(O)c1nc2cc(Cl)c(Cl)cc2[nH]c1=O` from this test. inactive

Same read-out for `COc1cccc2c1cc([N+](=O)[O-])c1c(C(=O)O)cc3c(c12)OCO3` ? inactive

Queued: C=CCc1ccccc1OCC(O)CNC(C)C (configuration not stated) inactive

Same lookup for `COc1c(O)cccc1O` , please. inactive

Could you do the same for CC(N)Cc1ccc(O)cc1 (configuration not stated) , please? inactive

Then this molecule: `O=c1[nH]c2cc(Cl)c(Cl)cc2[nH]c1=O` inactive

Can you check `COc1c(O)cc2c(-c3ccccc3)cc(=O)oc2c1OC` next? inactive

---

Assay: chemical genetic growth profiling, strain panel (AID 1159580);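 note: tested at 20 µM; growth read once vehicle control cultures reached saturation at 30 °C; lower values mean less growth of the strain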
Details: S. cerevisiae deletion strains, growth OD, locus YMR078C, strain ctf18
Hit rate of the full screen: of about 5,500 compounds, about 2,000 (36%) were called active. Roughly 18% stayed inconclusive and do not appear here. Rule as the data show it: active = normalized growth mostly below about 0.91 (no sharp cut-off); inconclusive = no clear call, values can overlap the other calls; inactive = mostly above about 0.92. This is one part of the list.
Mark one answer only. Choices: active, inactive

Answered examples (4):
compound	label-class
CCCCC1C(=O)N(c2ccccc2)N(c2ccccc2)C1=O	inactive
NS(=O)(=O)c1cc2c(cc1C(F)(F)F)NCNS2(=O)=O	inactive
O=C(/C=C/c1ccccc1)c1ccc(O)cc1	active
CC(C)c1ccc2c(c1O)CC[C@H]1C3=C(CC[C@]21C)C(=O)OC3	inactive

Now look at this one.
Could you check what this test reported for `O=c1c2ccccc2[se]n1-c1ccccc1` ? active

---

Test: chemical genetic growth profiling, strain panel (AID 1159580);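 note: tested at 20 µM; growth read once vehicle control cultures reached saturation at 30 °C; lower values mean less growth of the strain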
Conditions: S. cerevisiae deletion strains, growth OD, locus YGR252W, strain gcn5, hits give low values
About 2,000 (36%) of roughly 5,500 compounds were called active. Roughly 18% stayed inconclusive and do not appear here. This is one part of the list.
Please assign criterion not met whenever normalized growth is at or above 1, and criterion met whenever it is below.

In plain terms, does `CCCCCCCCCc1ccc(O)cc1` come in under 1 for normalized growth? criterion met

Would you kindly repeat that for CC(N)Cc1ccc(O)cc1 (centres undefined) ? criterion not met

Also check `NC(=O)CC[C@@H](N)C(=O)O` criterion not met

Moving on to the next molecule: `Cc1cc2cc3c(C)cc(=O)oc3c(C)c2o1` criterion met

Next up: C=CCCCCCCCCCCCC(O)CC(O)CO (centres undefined) (tested in a mixture with another compound) criterion met

Now consider COCCOC(=O)C1=C(C)NC(C)=C(C(=O)OC(C)C)C1c1cccc([N+](=O)[O-])c1 (centres undefined) and answer again. criterion met

Please answer likewise for `CC(C)(Oc1ccc(Cl)cc1)C(=O)O` criterion not met

Continue with CC1(C)O[C@@H]2CC3C4C[C@H](F)C5=CC(=O)C=C[C@]5(C)[C@@]4(F)[C@@H](O)C[C@]3(C)[C@]2(C(=O)CO)O1 (some centres undefined) criterion not met

# repeat for `CC(=O)O.CC(=O)O.[Cd]` criterion met

Record: `CCCCC1C(=O)N(c2ccccc2)N(c2ccccc2)C1=O` criterion met

Now consider `COc1ccc(-c2cc(=O)c3cc(OC)ccc3o2)cc1` and answer again. criterion not met

Try the molecule COC(=O)C1=C(C)NC(C)=C(C(=O)OCCN(C)Cc2ccccc2)C1c1cccc([N+](=O)[O-])c1 (centres undefined) criterion met

Same thing, different molecule: `NCCc1cccc(O)c1` criterion met

Note, next up: `O=C1CCc2cc(OCCCCc3nnnn3C3CCCCC3)ccc2N1` criterion met
